Just for reference, patent US10478421B1 is where these values come from.

- targetOrTestSystem: hsortilin (Homo sapiens)
- Sequence (Q99523 78-831): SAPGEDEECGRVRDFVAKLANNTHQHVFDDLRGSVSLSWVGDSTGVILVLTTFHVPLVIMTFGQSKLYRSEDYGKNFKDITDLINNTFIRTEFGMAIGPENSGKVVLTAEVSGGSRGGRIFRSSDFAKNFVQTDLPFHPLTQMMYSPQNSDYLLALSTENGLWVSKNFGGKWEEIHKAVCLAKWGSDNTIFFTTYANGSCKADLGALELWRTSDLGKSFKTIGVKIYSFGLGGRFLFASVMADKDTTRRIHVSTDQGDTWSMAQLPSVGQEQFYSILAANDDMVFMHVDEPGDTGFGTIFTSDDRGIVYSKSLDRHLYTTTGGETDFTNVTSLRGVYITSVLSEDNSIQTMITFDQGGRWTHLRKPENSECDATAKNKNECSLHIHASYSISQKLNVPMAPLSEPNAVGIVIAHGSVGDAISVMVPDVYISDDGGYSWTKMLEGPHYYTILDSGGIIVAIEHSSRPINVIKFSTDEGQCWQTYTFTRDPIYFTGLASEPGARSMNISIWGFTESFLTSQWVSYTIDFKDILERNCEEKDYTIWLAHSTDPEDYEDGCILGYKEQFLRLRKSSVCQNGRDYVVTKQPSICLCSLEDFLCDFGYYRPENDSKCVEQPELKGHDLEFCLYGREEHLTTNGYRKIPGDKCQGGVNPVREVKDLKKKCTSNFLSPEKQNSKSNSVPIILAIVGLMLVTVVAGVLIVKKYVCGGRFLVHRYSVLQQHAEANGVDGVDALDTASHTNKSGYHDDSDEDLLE
- protocolDetails: SPR binding of 541 and 984 to hsortilin (Example 4)
- measurementContext: two trials
readoutName: Kd

Supply measured Kd of CC(NC(=O)c1ccccc1NCC(=O)O)c1ccccc1 (stereo not shown) in your reply. 7.5 µM
